experiment.summary: Tolerability in CD1 mice: hematology assays (Example 43)
Format: in vivo
experimental.parameters: 50 mg/kg s.c. twice per week for 6 weeks, blood
Strand notation (5' to 3'): a small letter for the sugar, then the base; units joined by * are phosphorothioate-linked, units joined directly phosphodiester-linked; [ ] holds rarer units or linkages, { } end groups; capitals alone tell only the bases. e = 2'-O-(2-methoxyethyl) (MOE); [5mC] = 5-methylcytosine; d = 2'-deoxy (DNA)
endpoint: WBC (nL⁻¹)

[
  {
    "substance": "ISIS 449708: 3-8-3, 4-8-4, 2-10-2, 3-10-3 or 4-10-4 MOE microwalk gapmer (Table 46) (antisense eA*e[5mC]*eA*dG*dT*dT*dT*d[5mC]*dT*dG*dG*e[5mC]*eA*eG)",
    "quantitative.readout": 7
  },
  {
    "substance": "ISIS 449710: 3-8-3, 4-8-4, 2-10-2, 3-10-3 or 4-10-4 MOE microwalk gapmer (Table 46) (antisense e[5mC]*eA*e[5mC]*dA*dG*dT*dT*dT*d[5mC]*dT*dG*dG*d[5mC]*eA*eG*eG)",
    "quantitative.readout": 7
  },
  {
    "substance": "ISIS 449709: 3-8-3, 4-8-4, 2-10-2, 3-10-3 or 4-10-4 MOE microwalk gapmer (Table 46) (antisense eG*e[5mC]*eA*e[5mC]*dA*dG*dT*dT*dT*d[5mC]*dT*dG*dG*d[5mC]*eA*eG*eG*e[5mC])",
    "quantitative.readout": 5
  },
  {
    "substance": "ISIS 449707: 3-8-3, 4-8-4, 2-10-2, 3-10-3 or 4-10-4 MOE microwalk gapmer (Table 46) (antisense e[5mC]*eA*e[5mC]*eA*dG*dT*dT*dT*d[5mC]*dT*dG*dG*e[5mC]*eA*eG*eG)",
    "quantitative.readout": 6
  },
  {
    "substance": "ISIS 449711: 3-8-3, 4-8-4, 2-10-2, 3-10-3 or 4-10-4 MOE microwalk gapmer (Table 46) (antisense eA*e[5mC]*dA*dG*dT*dT*dT*d[5mC]*dT*dG*dG*d[5mC]*eA*eG)",
    "quantitative.readout": 6
  }
]
